assay: molar heat capacity at constant pressure; conditions: 338.15 K; 101.33 kPa; Crystal
Kindly apply the following: TRUE if molar heat capacity at constant pressure is less than 200 J/K/mol, FALSE in every other case.

Please review the entries below; each comes with its answer.
[[record]]
molecule = "Cn1c(=O)cc[nH]c1=O"
assignedcategory = "FALSE"

[[record]]
molecule = "O=c1[nH]cc(Br)c(=O)[nH]1"
assignedcategory = "TRUE"

[[record]]
molecule = "O=c1[nH]cc(F)c(=O)[nH]1"
assignedcategory = "TRUE"

[[record]]
molecule = "Oc1ncc(Cl)c(O)n1"
assignedcategory = "TRUE"

[[record]]
molecule = "Cc1nc(O)nc(O)c1C [2,4-dihydroxy-5,6-dimethylpyrimidine]"
assignedcategory = "FALSE"

[[record]]
molecule = "O=[N+]([O-])c1cnc(O)nc1O"
assignedcategory = "TRUE"

[[record]]
molecule = "O=c1cc[nH]c(=O)[nH]1"
assignedcategory = "TRUE"

[[record]]
molecule = "Cn1ccc(=O)[nH]c1=O"
assignedcategory = "FALSE"

[[record]]
molecule = "Cn1c2c(c(=O)n(C)c1=O)CCCCC2"
assignedcategory = "FALSE"

[[record]]
molecule = "Cc1cc(O)nc(O)n1 [2,4-dihydroxy-6-methylpyrimidine]"
assignedcategory = "TRUE"


Please turn your attention to the following entry.
Problem: For the molecule CCc1cn(C)c(=O)n(C)c1=O , is molar heat capacity at constant pressure under 200 J/K/mol? FALSE

====

test: molar heat capacity at constant pressure; details: 318.15 K; 101.33 kPa; Crystal
reportedMetric: molar heat capacity at constant pressure (J/K/mol)
Field: numeric (J/K/mol). Do not append units.

Examples with answers:
[[record]]
molecule = "CCCCc1cc(=O)n(C)c(=O)n1C"
assayvalue = 302.1

[[record]]
molecule = "CCc1cn(C)c(=O)n(C)c1=O"
assayvalue = 264.3


Quick check: molar heat capacity at constant pressure of Cc1cc(O)nc(O)n1 [2,4-dihydroxy-6-methylpyrimidine] ? 176.9

====

assay: molar heat capacity at constant pressure; conditions: 303.15 K; 101.33 kPa; Crystal
Please use Satisfied whenever molar heat capacity at constant pressure is not below 200 J/K/mol, and Not satisfied whenever it is.

Before answering, review these 10 worked examples.
[[record]]
molecule = "O=c1[nH]cc(F)c(=O)[nH]1"
assignedcategory = "Not satisfied"

[[record]]
molecule = "Cn1c2c(c(=O)n(C)c1=O)CCCC2 [1,3-dimethyl-5,6,7,8-tetrahydroquinazoline-2,4(1H,3H)-dione]"
assignedcategory = "Satisfied"

[[record]]
molecule = "CCc1cc(=O)n(C)c(=O)n1C"
assignedcategory = "Satisfied"

[[record]]
molecule = "Cc1cn(C)c(=O)[nH]c1=O"
assignedcategory = "Not satisfied"

[[record]]
molecule = "Cn1ccc(=O)[nH]c1=O"
assignedcategory = "Not satisfied"

[[record]]
molecule = "CCc1cn(C)c(=O)n(C)c1=O"
assignedcategory = "Satisfied"

[[record]]
molecule = "Cc1cc(O)nc(O)n1 [2,4-dihydroxy-6-methylpyrimidine]"
assignedcategory = "Not satisfied"

[[record]]
molecule = "Cc1cc(=O)n(C)c(=O)n1C"
assignedcategory = "Satisfied"

[[record]]
molecule = "O=c1[nH]cc(C(F)(F)F)c(=O)[nH]1"
assignedcategory = "Not satisfied"

[[record]]
molecule = "Cn1ccc(=O)n(C)c1=O"
assignedcategory = "Not satisfied"


Can O=[N+]([O-])c1cnc(O)nc1O be said to have molar heat capacity at constant pressure at or above 200 J/K/mol? Not satisfied

Quick check: does O=c1cc(Cl)[nH]c(=O)[nH]1 have molar heat capacity at constant pressure greater than or equal to 200 J/K/mol? Not satisfied

====

assay: molar heat capacity at constant pressure; settings: 338.15 K; 101.33 kPa; Crystal
Measured molar heat capacity at constant pressure accompanies every entry in the list below.
Report the figure in J/K/mol without appending any unit label.

[[record]]
compoundstructurestring = "O=c1[nH]cc(C(F)(F)F)c(=O)[nH]1"
unitabbreviation = "J/K/mol"
assayvalue = 204.4

[[record]]
compoundstructurestring = "Cc1cn(C)c(=O)[nH]c1=O"
unitabbreviation = "J/K/mol"
assayvalue = 203

[[record]]
compoundstructurestring = "Cc1cc(=O)n(C)c(=O)[nH]1"
unitabbreviation = "J/K/mol"
assayvalue = 206

[[record]]
compoundstructurestring = "Cn1ccc(=O)n(C)c1=O"
unitabbreviation = "J/K/mol"
assayvalue = 203.3


// query molar heat capacity at constant pressure value for entry Cc1c[nH]c(=O)[nH]c1=O 203.5

// provenance: the NIST ThermoML archive (doi:10.1021/je060257y)
